Task for the reader: assign each of the following compounds its reported CC50 at 24 h.
- assay-text: in vitro
- condition-notes: rat, gh3-tre-luc cells, AC50 (uM) modified / 1000
Where a name gives a salt, the structure may show the parent alone.
Answers are plain numbers, in µM.

> print(dat)
                                   compound    value.type  units.label  value.reported
1  CN(CCCN1c2ccccc2CCc2ccccc21)CC(=O)c1ccc(Cl)cc1 [Lofepramine hydrochloride]  CC50 at 24 h           µM              22

Now take the following compound into account.
Data point: `CC(=O)C1=C(C)[C@@H]2C[C@@]3(C1)[C@H](C)CC[C@H]3C2(C)C` ; CC50 at 24 h = 56.9

----------
- assay-text: in vitro
- condition-notes: rat, gh3-tre-luc cells, AC50 (uM) modified / 1000, Tox21_110001=Tox21_302237; viability, 1 nM T3 present, 24 h
value-type: CC50 at 24 h (µM)
Give bare numbers, in µM.

Data point: `Cc1c([N+](=O)[O-])cc2c(c1[N+](=O)[O-])C(C)(C)CC2(C)C` ; CC50 at 24 h = 74.8

----------
- assay-text: in vitro
- condition-notes: rat, gh3-tre-luc cells, AC50 (uM) modified / 1000, Tox21_110001=Tox21_301750; viability, 1 nM T3 present, 24 h
value-type: CC50 at 24 h

Data point: `CC(C)(C)c1cc([N+](=O)[O-])cc(C(C)(C)C)c1O` ; CC50 at 24 h = 11 µM

----------
- Test system: GH3-TRE-Luc cell line
- condition-notes: read-out: AC50 (uM) modified / 1000; Tox21_110001=Tox21_301969; viability, 1 nM T3 present, 24 h
value-type: CC50 (µM)
One number for each entry, in µM.

Item C#C[C@]1(O)CC[C@H]2[C@@H]3CCC4=CCCC[C@@H]4[C@H]3CC[C@@]21C [Lynestrenol] was tested on GH3-TRE-Luc cell line; the reported CC50 is 46.9

----------
- assay-text: in vitro
- condition-notes: rat, gh3-tre-luc cells, AC50 (uM) modified / 1000, Tox21_110001=Tox21_300621; viability, 1 nM T3 present, 24 h
value-type: CC50 at 24 h (µM)
Answers are plain numbers, in µM.

Data point: ClC1=C(Cl)[C@]2(Cl)[C@@H]3[C@@H](Cl)[C@H]4O[C@H]4[C@@H]3[C@@]1(Cl)C2(Cl)Cl [Heptachlor epoxide] ; CC50 at 24 h = 48.8

----------
- assay-text: in vitro
- condition-notes: rat, gh3-tre-luc cells, AC50 (uM) modified / 1000
Where a name gives a salt, the structure may show the parent alone.
value-type: CC50 at 24 h

Below: 2 compounds and their reported CC50 at 24 h.
compound	CC50 at 24 h
N=C(N)c1ccc(/C=C/c2ccc(C(=N)N)cc2O)cc1	> 50 µM
Cc1ccc([N+](=O)[O-])c(C)c1 [1,3-Dimethyl-4-nitrobenzene]	> 90 µM

Give CC50 at 24 h for each of the items listed below.
1. O=C(Oc1ccccc1)c1ccccc1 [Phenyl benzoate]
2. O=C(c1ccc(OCCN2CCCCC2)cc1)c1c(-c2ccc(O)cc2)sc2cc(O)ccc12 [Raloxifene]
3. CC(CN(C)C)CN1c2ccccc2S(=O)(=O)c2ccccc21 (centres unmarked) [Oxomemazine hydrochloride]
4. CCCCC(=O)Cl [Valeryl chloride]
5. C[C@@H](O)[C@@H]1NC(=O)[C@H](CCCCN)NC(=O)[C@@H](Cc2c[nH]c3ccccc23)NC(=O)[C@H](Cc2ccccc2)NC(=O)[C@@H](NC(=O)[C@H](N)Cc2ccccc2)CSSC[C@@H](C(=O)N[C@H](CO)[C@@H](C)O)NC1=O [Octreotide]
6. CCN1CCN(c2cc(-c3ccc(F)cc3)c3c(n2)CCCCCC3)CC1 [Blonanserin]

1: > 90 µM; 2: 3.84 µM; 3: 37.7 µM; 4: > 90 µM; 5: > 50 µM; 6: 20.1 µM
